# experimental.target: FLJ39196 clone-derived protein (human neurocalcin δ) (Homo sapiens, UniProt P61601)
# Construct: A human full-length cDNA clone was expressed as a protein with an N-terminal His tag; His tag (N); made in house; host or cells: Escherichia coli BL21star(DE3)pLysS (pDEST17 Gateway expression plasmid)
# test.summary: SEC/MS interaction analysis (size exclusion spin column and mass analysis) with FLJ39196 clone-derived protein
# Type: binding
# measurement.setup: protein 23.75 μM, compound 1 μM
experimental.readout: spectral intensity of the compound in the SEC spin column filtrate (protein fraction)
Numbers only.

Some solved cases for reference:
INSERT INTO results (molecule, result_number) VALUES
  ('CCOC(=O)Oc1c(OC)cc(C(=O)O[C@@H]2C[C@@H]3CN4CCc5c([nH]c6cc(OC)ccc56)[C@H]4C[C@@H]3[C@H](C(=O)OC)[C@H]2OC)cc1OC', 63594361),
  ('CC(C)/N=c1\cc2n(-c3ccc(Cl)cc3)c3ccccc3nc-2cc1Nc1ccc(Cl)cc1', 2041846);

If you can, please state the reported spectral intensity of the compound in the SEC spin column filtrate (protein fraction) value of OCCN1CCN(CC/C=C2/c3ccccc3Sc3ccc(C(F)(F)F)cc32)CC1 [Flupentixol cis-(Z)] .
38801184
